// data source = patent US20110059095A1

- target_of_assay: T1, full length human PAR-2 (human, UniProt P55085 26-397)
- T1 construct: overexpressed on HEK293-derived 293/D9 cells; also called 293/D9/hPAR-2rec cells
- protocol_description: MSD cell binding
measured_metric: EC50
Just so you know, I need the unit written after the number.

# count of solved cases: 5
binder: H4H588N (antibody, human IgG4, V domains shown, also called H2M588N variable regions) VH: EVQLLESGGGLVQPGGSLRLSCAASGFTFSSYAMTWVRQAPGKGLYWVSAISGGRGSAYYADSVKGRFTISRDNSKNTLYLQMNSLRAEDTAVYYCAKEGDSGYDLAYWGRGTLVTVSS VL: DIQMTQSPSSLSASVGDRVTITCRARQGISNNLAWLQQKPGKAPKSLIYAASSLQSGIPSKFSGSGSGTYFTLTISSLQPEDFATYYCQQYKSSPLTFGGGTKVEIK
EC50: 5.95 nM

binder: H4H584P (antibody, human IgG4, V domains shown, also called H1H584P variable regions) VH: QVQLVESGGGVVQPGRSLRLSCVASGFTFSRYGMHWVRQAPGKGLEWVVVISYDGINKYYADSVKGRFTISRDNSKNTVYLQMNSLRAEDTAVYYCAKGDFWSGYFDYWGQGTLVTVSS VL: DIVMTQTPLSSPVTLGQPASISCRSSQSLVHSDGNTYLSWLHQRPGQPPRLLIYKISNRFSGVPDRFSGSGAGTDFTLQISRVEAEDVGIYYCMQATQFPTFGGGTKVEIK
EC50: 1.45 nM

binder: H4H581P (antibody, human IgG4, V domains shown, also called mAb H4H581P; H1H581P variable regions) VH: QVQLVESGGGVVQPGRSLRLSCVASGFTFSRYGIHWVRQAPGKGLEWVIVISYDGINKYYADSVKGRFTISRDNSKNTVYLQMNSLRAEDTAVYYCAKGDFWSGYFDYWGQGTLVTVSS VL: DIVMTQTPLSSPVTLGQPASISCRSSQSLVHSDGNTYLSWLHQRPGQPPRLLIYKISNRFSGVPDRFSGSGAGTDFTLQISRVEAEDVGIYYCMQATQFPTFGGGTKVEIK
EC50: 0.652 nM

binder: H4H580P (antibody, human IgG4, V domains shown, also called H1H580P variable regions) VH: QVQLVESGGGVVQPGRSLRLSCVASGFTFSRYGMHWVRQAPGKGLEWVVVISYDGINKYYADSVKGRFTISRDNSKNTVYLQMNSLRAEDTAVYHCAKGDFWSGYFDYWGQGTLVTVSS VL: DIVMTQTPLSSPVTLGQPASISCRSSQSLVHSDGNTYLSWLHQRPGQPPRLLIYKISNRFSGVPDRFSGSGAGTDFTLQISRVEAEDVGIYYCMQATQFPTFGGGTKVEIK
EC50: 8.69 nM

binder: H4H583P (antibody, human IgG4, V domains shown, also called H1H583P variable regions) VH: QVQLVESGGGVVQPGMSLRLSCTASGFTFRRYGMHWVRQAPGKGLEWVAVIWYDGSNKYYADSVKGRFTITRDNSKNTLYLQMNSLRAEDTAIYFCASEITIGDWFDPRGQGTLVTVSS VL: AIQMTQSPSSLSASVGDRVTITCRASQGIRNDLGWFQQKPGKVPKLLIYAASTLHSGVPSRFSGSGFGTDFTLTISSLQPEDFATYYCLQDFNYPLTFGGGTKVEIK
EC50: 2.12 nM

For H4H585P (antibody, human IgG4, V domains shown, also called H1H585P variable regions) VH: QVQLVESGGGVVQPGRSLRLSCVASGFTFSRYGMHWVRQAPGKGLEWLIVISYDGINKYYADSVKGRFTISRDNSKNTVYLQMNSLRAEDTAVYYCAKGDFWSGYFDYWGQGTLVTVSS VL: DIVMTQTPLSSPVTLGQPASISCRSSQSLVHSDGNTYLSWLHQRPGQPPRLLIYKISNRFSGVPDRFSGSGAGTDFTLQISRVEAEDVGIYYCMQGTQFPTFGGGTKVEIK , what is its reported EC50?
1.95 nM

I am curious: what EC50 value has been reported for H4H579P (antibody, human IgG4, V domains shown, also called H1H579P variable regions) VH: QVQLVESGGGVVQPGRSLRLSCVASGFTFSRYGMHWVRQAPGKGLEWLIVISYDGINKYYADSVKGRFTISRDNSKNTVYLQMNSLRAEDTGVYYCAKGDFWSGYFDYWGQGTLVTVSS VL: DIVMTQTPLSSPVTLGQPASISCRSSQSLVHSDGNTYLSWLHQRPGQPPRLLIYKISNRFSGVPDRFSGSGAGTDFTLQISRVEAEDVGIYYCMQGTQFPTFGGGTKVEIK ?
1.86 nM
